Below, each entry is listed alongside its reported pIC50.
Tested on: Leishmania amazonensis promastigote
experimental-protocol: Activity against promastigote forms (MTT)
Type: cell-based
reported-conditions: Leishmania amazonensis, 24 h, L. amazonensis promastigotes; 24 h of treatment per table title; MTT; read-out: IC50 Promastigote
pIC50: −log10 of the molar value.

OCc1ccccc1-n1cc(COc2ccccc2)nn1 [Compound 8]: < 3.52
O=Cc1ccccc1-n1cc(COc2cccc(O)c2)nn1 [Compound 3]: < 4.30
O=Cc1ccccc1-n1cc(COc2ccccc2)nn1 [Compound 1]: < 4.30
C(=N\Nc1ccccc1)/c1ccccc1-n1cc(COc2ccccc2)nn1 [Compound 6]: ~4.82

Please find the next compound below.
Under Leishmania amazonensis promastigote: pIC50 value of O=c1ccc2cc(-n3cc(COc4ccccc4)nn3)ccc2o1 [Compound 10] ?
< 3.52

* * *

experimental-protocol: Cytotoxicity assay (MTT)
Assay type: cell-based, BALB/c mice
reported-conditions: mouse; BALB/c peritoneal macrophages; 24 h of treatment; MTT; read-out: CC50
Listing of entries alongside the reported CC50 at 24 h.
The response must be a number in µM with no trailing unit.

These recorded examples may help you get a feel for the data.
Cc1ccc(S(=O)(=O)N/N=C/c2ccccc2-n2cc(COc3ccccc3)nn2)cc1 [Compound 5]: 58
O=Cc1ccccc1-n1cc(COc2ccccc2)nn1 [Compound 1]: 221
O=Cc1ccccc1-n1cc(-c2ccccc2)nn1 [Compound 7]: 412
O=Cc1ccccc1-n1cc(COc2cccc(O)c2)nn1 [Compound 3]: 308
O=Cc1ccccc1-n1cc(COc2cccc(OCc3cn(-c4ccccc4C=O)nn3)c2)nn1 [Compound 2]: 248
C(=N\Nc1ccccc1)/c1ccccc1-n1cc(COc2ccccc2)nn1 [Compound 6]: 548

Would you kindly share the measured CC50 at 24 h for C#CCOc1cccc(OCc2cn(-c3ccccc3C=O)nn2)c1 [Compound 4] ?
145
